src = paper PMC7156458

biological target: Aβ42 (Homo sapiens, UniProt P05067); assay: Th-T (thioflavin-T) assay of Aβ42 aggregation; type: biochemical; conditions: head suffix _50 (concentration 50); reading M72
Sequence (P05067 672-713): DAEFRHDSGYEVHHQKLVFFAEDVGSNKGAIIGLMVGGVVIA
YES if Th-T fluorescence of Aβ42 (sheet Fig. 7a), mean of three wells is below 2. NO if not; exact matches included in NO.

Look over these answered cases.
[
  {
    "molecule": "C=C1CCC2C(C)(CCC=C(C)C)C(O)CCC2(C)C1Cc1c(OC)oc(CO)c(C(=O)OC)c1=O (centres unmarked) [Compound 13]",
    "assigned category": "YES"
  },
  {
    "molecule": "C=C1CCC2C(C)(CCC=C(C)C)C(O)CCC2(C)C1Cc1c(OC)oc(C)c(C(=O)OC)c1=O (centres unmarked) [Compound 14]",
    "assigned category": "NO"
  },
  {
    "molecule": "C=C1CCC2C(C)(CCC=C(C)C)C(O)CCC2(C)C1Cc1c(OC)oc(CO)c(C)c1=O (centres unmarked) [Compound 12]",
    "assigned category": "YES"
  },
  {
    "molecule": "C=C1CC[C@@H]2[C@](C)(CC[C@H]3O[C@H](C=C(C)C)C[C@@]23C)[C@@H]1Cc1c(OC)oc(CO)c(C(=O)OC)c1=O [Compound 21]",
    "assigned category": "YES"
  }
]

Okay, now this molecule:
Challenge: API: query returns whether the molecule falls strictly under 2 in Th-T fluorescence of Aβ42 (sheet Fig. 7a), mean of three wells. Query: C=C1CC[C@@H]2[C@](C)(CC[C@H]3O[C@H](C=C(C)C)C[C@@]23C)[C@@H]1Cc1c(OC)oc(CO)c(C)c1=O [Compound 20]
Response given: NO

* * *

target: UniProtKB P05067; assay: Th-T (thioflavin-T) assay of Aβ42 aggregation; type: biochemical; details: Supplementary Fig. 47; reading M141
quantity measured: Th-T fluorescence, mean of three wells
Numbers only.

[
  {
    "compound": "C=C1CCC2C(C)(CCC=C(C)C)C(O)CCC2(C)C1Cc1c(OC)oc(C)c(C)c1=O (stereo not shown) [Compound 11]",
    "Th-T fluorescence, mean of three wells": 3.315
  },
  {
    "compound": "C=C1CCC2C(C)(CC(=O)C=C(C)C)C(O)CCC2(C)C1Cc1c(OC)oc(C)c(C)c1=O (stereo not shown)",
    "Th-T fluorescence, mean of three wells": 3.497
  },
  {
    "compound": "C=C1CC[C@H]2[C@]3(C)C[C@@H](C=C(C)C)O[C@H]3CC[C@]2(C)[C@@H]1Cc1c(OC)oc(CO)c(C)c1=O",
    "Th-T fluorescence, mean of three wells": 3.571
  },
  {
    "compound": "C=C1CCC2C(C)(CCC=C(C)C)C(O)CCC2(C)C1Cc1c(OC)oc(C)c(C)c1=O (stereo not shown) [Compound 15, viridoxin A hydrolysate]",
    "Th-T fluorescence, mean of three wells": 3.3427
  },
  {
    "compound": "C=C1CCC2C(C)(CCC=C(C)C)C(O)CCC2(C)C1Cc1c(O)c(C)c(C)oc1=O (stereo not shown) [Compound 9, higginsianin B]",
    "Th-T fluorescence, mean of three wells": 2.762
  },
  {
    "compound": "C=C1CCC2C(C)(CC(=O)C=C(C)C)C(O)CCC2(C)C1Cc1c(OC)oc(CO)c(C)c1=O (stereo not shown)",
    "Th-T fluorescence, mean of three wells": 3.577
  },
  {
    "compound": "C=C1CC[C@H]2[C@]3(C)C[C@@H](C=C(C)C)O[C@H]3CC[C@]2(C)[C@@H]1Cc1c(O)c(C)c(C)oc1=O",
    "Th-T fluorescence, mean of three wells": 2.631
  },
  {
    "compound": "CC(C)=CCC/C(C)=C/CC/C(C)=C/CC/C(C)=C/Cc1c(O)c(C)c(C)oc1=O",
    "Th-T fluorescence, mean of three wells": 2.944
  },
  {
    "compound": "C=C1CC[C@@H]2[C@](C)(CC[C@H]3O[C@H](C=C(C)C)C[C@@]23C)[C@@H]1Cc1c(O)c(C)c(C)oc1=O",
    "Th-T fluorescence, mean of three wells": 2.969
  },
  {
    "compound": "C=C1CCC2C3(C)CC(C=C(C)C)OC3CCC2(C)C1Cc1c(OC)oc(C)c(C)c1=O (stereo not shown)",
    "Th-T fluorescence, mean of three wells": 3.727
  }
]

Parameters: items (list). Returns: Th-T fluorescence, mean of three wells for each item.
1. C=C1CCC2C(C)(CCC=C(C)C)C(O)CCC2(C)C1Cc1c(O)c(C)c(C)oc1=O (stereo not shown) [Compound 4]
2. C=C1CCC2C(C)(CCC=C(C)C)C(=O)CCC2(C)C1Cc1c(O)c(C)c(C)oc1=O (stereo not shown)
3. C=C1CC[C@H]2[C@]3(C)C[C@H](C=C(C)C)O[C@H]3CC[C@]2(C)[C@@H]1Cc1c(OC)oc(C)c(C)c1=O
4. C=C1CC[C@H]2[C@]3(C)C[C@H](C=C(C)C)O[C@H]3CC[C@]2(C)[C@@H]1Cc1c(O)c(C)c(C)oc1=O

Response given:
1: 2.765; 2: 2.191; 3: 3.853; 4: 3.01

For each of the compounds below, note its Th-T fluorescence, mean of three wells.
1. C=C1CC[C@H]2[C@]3(C)C[C@H](C=C(C)C)O[C@H]3CC[C@]2(C)[C@@H]1Cc1c(OC)oc(CO)c(C)c1=O
2. C=C1CCC2C(C)(CC(=O)C=C(C)C)C(O)CCC2(C)C1Cc1c(O)c(C)c(C)oc1=O (stereo not shown)

Response given:
1. 3.7322
2. 3.413
